- Test protocol: Half life in cynomolgus monkey at 20 mg/kg, po measured up to 24 hrs by LC-MS/MS analysis
- Format: ADME, organism-based, Macaca fascicularis
- Settings: in vivo
Measure: half-life (h)
Record the value in h, omitting the unit from your answer.

Input: Entry Cn1c(=O)n(C2CCC(=O)NC2=O)c2cccc(C#CCO[C@H]3CC[C@H](CN4CCC5(CC4)Cc4cc(NC(=O)c6coc7cccnc67)c(N6CCC(CO)CC6)cc4O5)CC3)c21 (stereo partly specified) : reported half-life = ?
Output: 9.07

---

- Test protocol: Metabolic stability in dog liver microsome assessed as half life at 1 uM measured up to 60 mins in presence of NADPH by LC-MS/MS analysis
- Format: ADME, Canis lupus familiaris
- Settings: liver microsomes
half-life at 1 µM for assorted compounds

Cn1c(=O)n(C2CCC(=O)NC2=O)c2cccc(C#CCO[C@H]3CC[C@@H](CN4CCC5(CC4)Cc4cc(NC(=O)c6cnn7cccnc67)c(N6CCC(CO)CC6)cc4O5)CC3)c21 (stereo partly drawn)    0.0167 h
Cn1c(=O)n(C2CCC(=O)NC2=O)c2cccc(C#CCO[C@H]3CC[C@H](CN4CCC5(CC4)Cc4cc(NC(=O)c6cnn7cc(CO)cnc67)c(N6CCC(CO)CC6)cc4O5)CC3)c21 (stereo partly drawn)    > 3.07 h
Cn1c(=O)n(C2CCC(=O)NC2=O)c2cccc(C#CCN3CCN(CC(=O)N4CCC5(CC4)Cc4cc(NC(=O)c6cnn7cccnc67)c(N6CCC(CO)CC6)cc4O5)CC3)c21 (stereo not drawn)    1.22 h
Cn1c(=O)n(C2CCC(=O)NC2=O)c2cccc(C#CCO[C@H]3CC[C@H](CN4CCC5(CC4)Cc4cc(NC(=O)c6cnn7cc(F)cnc67)c(N6CCC(CO)CC6)cc4O5)CC3)c21 (stereo partly drawn)    > 3.07 h
Cn1c(=O)n(C2CCC(=O)NC2=O)c2cccc(C#CCO[C@H]3CC[C@@H](CN4CCC5(Cc6cc(NC(=O)c7cnn8cccnc78)c(N7CCC(CO)CC7)cc6O5)C4)CC3)c21 (stereo partly drawn)    0.583 h
Cn1c(=O)n(C2CCC(=O)NC2=O)c2cccc(C#CCO[C@H]3CC[C@H](CN4CCC5(CC4)Cc4cc(NC(=O)c6cnn7cccnc67)c(N6CCC(O)CC6)cc4O5)CC3)c21 (stereo partly drawn)    > 3.07 h
Cn1c(=O)n(C2CCC(=O)NC2=O)c2cccc(C#CCO[C@H]3CC[C@H](CN4CCC5(CC4)Cc4cc(NC(=O)c6cnc7cccnn67)c(N6CCC(CO)CC6)cc4O5)CC3)c21 (stereo partly drawn)    > 3.07 h

Lab note: next compound to report on.
Input: Entry Cn1c(=O)n(C2CCC(=O)NC2=O)c2cccc(C#CCO[C@H]3CC[C@H](CN4CCC5(CC4)Cc4cc(NC(=O)c6cnn7cccnc67)c(N6CCC(CO)CC6)cc4O5)CC3)c21 (stereo partly drawn) : reported half-life at 1 µM = ?
Output: > 3.07 h

---

- Target system: hERG (KCNH2) (Homo sapiens)
- Sequence (Q12809 whole entry): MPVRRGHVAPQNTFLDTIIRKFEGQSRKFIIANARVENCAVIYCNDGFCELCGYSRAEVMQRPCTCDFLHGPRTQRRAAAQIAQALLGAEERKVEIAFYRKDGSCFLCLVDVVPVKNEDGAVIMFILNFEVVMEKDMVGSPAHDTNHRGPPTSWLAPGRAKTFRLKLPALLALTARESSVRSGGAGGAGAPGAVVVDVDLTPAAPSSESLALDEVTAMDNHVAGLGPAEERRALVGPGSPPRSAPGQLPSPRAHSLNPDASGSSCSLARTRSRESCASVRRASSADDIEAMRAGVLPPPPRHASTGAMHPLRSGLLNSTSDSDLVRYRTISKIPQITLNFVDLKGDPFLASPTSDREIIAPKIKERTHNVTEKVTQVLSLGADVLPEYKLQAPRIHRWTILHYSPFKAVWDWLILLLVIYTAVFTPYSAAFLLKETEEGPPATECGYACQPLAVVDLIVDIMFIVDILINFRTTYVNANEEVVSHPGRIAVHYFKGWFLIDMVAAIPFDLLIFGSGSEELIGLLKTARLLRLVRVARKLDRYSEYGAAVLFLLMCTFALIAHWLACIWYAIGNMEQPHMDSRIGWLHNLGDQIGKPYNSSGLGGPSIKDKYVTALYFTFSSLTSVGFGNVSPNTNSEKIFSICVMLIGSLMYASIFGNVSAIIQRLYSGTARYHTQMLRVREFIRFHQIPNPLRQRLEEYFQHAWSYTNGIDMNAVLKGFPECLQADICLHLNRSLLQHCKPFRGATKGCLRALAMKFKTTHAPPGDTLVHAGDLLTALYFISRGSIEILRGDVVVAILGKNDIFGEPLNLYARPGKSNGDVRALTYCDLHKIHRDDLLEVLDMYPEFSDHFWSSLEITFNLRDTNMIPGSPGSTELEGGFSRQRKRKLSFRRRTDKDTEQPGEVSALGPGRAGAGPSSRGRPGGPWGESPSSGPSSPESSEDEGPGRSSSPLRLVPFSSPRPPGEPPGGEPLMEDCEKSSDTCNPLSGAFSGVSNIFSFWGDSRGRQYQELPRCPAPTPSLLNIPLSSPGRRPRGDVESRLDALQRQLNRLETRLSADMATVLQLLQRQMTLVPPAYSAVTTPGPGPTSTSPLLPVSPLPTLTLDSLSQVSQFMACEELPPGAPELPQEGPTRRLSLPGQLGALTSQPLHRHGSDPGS
- Test protocol: Inhibition of hERG expressed in HEK293 cells at 1 uM by manual patch clamp assay relative to control
- Assay type: toxicity, cell-based
- Settings: HEK293 cells expressing hERG
Please note: True applies when inhibition at 1 µM is 30% or greater, and False applies otherwise.

Cn1c(=O)n(C2CCC(=O)NC2=O)c2cccc(C#CCO[C@H]3CC[C@@H](CN4CCC5(Cc6cc(NC(=O)c7cnn8cccnc78)c(N7CCC(CO)CC7)cc6O5)C4)CC3)c21 (stereo not given in full)    False
Cn1c(=O)n(C2CCC(=O)NC2=O)c2cccc(C#CCO[C@H]3CC[C@H](CN4CCC5(CC4)Cc4cc(NC(=O)c6cnn7cccnc67)c(N6CCC(CO)CC6)cc4O5)CC3)c21 (stereo not given in full)    False
Cn1c(=O)n(C2CCC(=O)NC2=O)c2cccc(C#CCO[C@H]3CC[C@@H](CN4CCC5(CC4)Cc4cc(NC(=O)c6cnn7cccnc67)c(N6CCC(CO)CC6)cc4O5)CC3)c21 (stereo not given in full)    True
Cn1c(=O)n(C2CCC(=O)NC2=O)c2cccc(C#CCO[C@H]3CC[C@@](F)(CN4CCC5(CC4)Cc4cc(NC(=O)c6cnn7cccnc67)c(N6CCC(CO)CC6)cc4O5)CC3)c21 (stereo not given in full)    False

Input: Confirm if inhibition at 1 µM reported for the molecule Cn1c(=O)n(C2CCC(=O)NC2=O)c2cccc(C#CCO[C@H]3CC[C@H](CN4CCC5(CC4)Cc4cc(NC(=O)c6cnn7cc(F)cnc67)c(N6CCC(CO)CC6)cc4O5)CC3)c21 (stereo not given in full) is 30% or above.
Output: True
